The measurements presented in this section are drawn from ChEMBL document CHEMBL1121781.

# Tested on: Nucleic Acid
Classification field: yes = Log K at or over 6; no = Log K under 6.

Chemical Smiles: CN(c1ccccc1Nc1c2ccccc2nc2ccccc12)S(C)(=O)=O
Class Label: no

## Input For this compound, is measured Log K 6 or higher? CC(C)(C)c1ccccc1Nc1c2ccccc2nc2ccccc12
## Output no

## Input Item Cc1ccccc1Nc1c2ccccc2nc2ccccc12 with Log K of 6 or above?
## Output no

## Input Could you please find out whether NC(=O)c1ccccc1Nc1c2ccccc2nc2ccccc12 has Log K that meets 6 or exceeds it?
## Output no

## Input Confirm if Log K reported for the compound Brc1ccccc1Nc1c2ccccc2nc2ccccc12 is 6 or above.
## Output no

###

# Assay Name: physchem
# Description: Ionisation constant (pKa)
pKa reference
// no unit, no text: just the number

Some entries whose results are on file:
Chemical Smiles: CNc1cccc(Nc2c3ccccc3nc3ccccc23)c1
pKa: 7.61
--
Chemical Smiles: CC(=O)Nc1ccccc1Nc1c2ccccc2nc2ccccc12
pKa: 7.24
--
Chemical Smiles: CNc1ccc(Nc2c3ccccc3nc3ccccc23)cc1
pKa: 8.42
--
Chemical Smiles: Ic1ccc(Nc2c3ccccc3nc3ccccc23)cc1
pKa: 6.9
--
Chemical Smiles: CCNc1ccc(Nc2c3ccccc3nc3ccccc23)cc1
pKa: 8.3

Please look at the following compound next.
## Input I have this compound here, O=C(Nc1ccccc1)Nc1ccc(Nc2c3ccccc3nc3ccccc23)cc1 , and I need its recorded pKa.
## Output 7.67

###

pKa: recorded values
# Assay Name: physchem
No unit in the answer, please; the number alone is enough.

Chemical Smiles: CCCCNc1ccc(Nc2c3ccccc3nc3ccccc23)cc1
Measured Endpoint: pKa
Recorded Value: 8.24

## Input Which measured pKa value corresponds to Ic1ccccc1Nc1c2ccccc2nc2ccccc12 ?
## Output 6.47

## Input Given the entry Oc1cccc(Nc2c3ccccc3nc3ccccc23)c1 , report its measured pKa.
## Output 7.3

## Input What value of pKa has been recorded for this entry: CNC(=O)Nc1ccc(Nc2c3ccccc3nc3ccccc23)cc1
## Output 7.77

## Input What pKa value was documented for this molecule, c1ccc(Nc2c3ccccc3nc3ccccc23)nc1 ?
## Output 6.32

## Input Suppose we examine the molecule CC(=O)c1ccc(Nc2c3ccccc3nc3ccccc23)cc1 ; what pKa value has been reported?
## Output 6.12

## Input Give its pKa value. Item: CCCCCCNc1ccc(Nc2c3ccccc3nc3ccccc23)cc1
## Output 8.24

## Input What does the data say about its pKa? Entry: Nc1cccc(Nc2c3ccccc3nc3ccccc23)c1
## Output 7.58

## Input Look at this molecule and give its reported pKa. COC(=O)c1ccccc1Nc1c2ccccc2nc2ccccc12
## Output 6.3

## Input For the molecule Oc1ccccc1Nc1c2ccccc2nc2ccccc12 , what pKa is on record?
## Output 7.8

## Input Give its pKa value. Item: Brc1ccc(Nc2c3ccccc3nc3ccccc23)cc1
## Output 7

## Input I would be grateful if you could share the reported pKa for Fc1ccccc1Nc1c2ccccc2nc2ccccc12 .
## Output 6.84

###

As an illustration, consider measured Log K for compounds on Nucleic Acid.
API note: the answer field is a bare number with no unit suffix.

For orientation, consider the following solved cases.
Chemical Smiles: CNc1cccc(Nc2c3ccccc3nc3ccccc23)c1
Log K: 6.11
//
Chemical Smiles: NS(=O)(=O)c1ccc(Nc2c3ccccc3nc3ccccc23)cc1
Log K: 5.96
//
Chemical Smiles: CNc1ccc(Nc2c3ccccc3nc3ccccc23)cc1
Log K: 6.55
//
Chemical Smiles: c1cncc(Nc2c3ccccc3nc3ccccc23)c1
Log K: 5.75
//
Chemical Smiles: CS(=O)(=O)c1ccc(Nc2c3ccccc3nc3ccccc23)cc1
Log K: 5.86

## Input Recorded Log K for CC(C)c1ccccc1Nc1c2ccccc2nc2ccccc12 , please?
## Output 5.08

## Input // returns reported Log K for input Fc1ccccc1Nc1c2ccccc2nc2ccccc12
## Output 5.59

## Input So what does the record say about Log K for Nc1ccccc1Nc1c2ccccc2nc2ccccc12 ?
## Output 5.76

## Input State the recorded Log K for this entry: N#Cc1ccc(Nc2c3ccccc3nc3ccccc23)cc1
## Output 5.7

## Input Which value of Log K has been reported for c1ccc(Nc2c3ccccc3nc3ccccc23)nc1 in the records?
## Output 5.6

## Input Value lookup for Log K; key = Oc1ccc(Nc2c3ccccc3nc3ccccc23)cc1
## Output 6.28
